Data origin, for the record: ChEMBL document CHEMBL1142730

As shown below, each of these molecules has a reported pEC50 value.
Test system: Human immunodeficiency virus 1
test.method.notes: Protease inhibitory activity against HIV-1 r13034 mutant strain was determined
Format: functional, organism-based
Answer with the value's number alone.

Cc1cccc(C)c1OCC(=O)N[C@@H](Cc1ccccc1)[C@@H](O)C[C@H](Cc1ccccc1)NC(=O)[C@H](C(C)C)N1CCCNC1=O [LOPINAVIR]    6.59
CC(C)(C)NC(=O)[C@@H]1CN(Cc2cccnc2)CCN1C[C@@H](O)C[C@@H](Cc1ccccc1)C(=O)N[C@H]1c2ccccc2C[C@H]1O.O    5.9

Next item in the queue.
Query block: Request body: readout pEC50, system Human immunodeficiency virus 1, query CC(C)(C)NC(=O)[C@@H]1C[C@@H]2CCCC[C@@H]2CN1C[C@@H](O)[C@H](Cc1ccccc1)NC(=O)[C@H](CC(N)=O)NC(=O)c1ccc2ccccc2n1 . Return the value.
Result block: 5.91
